For each record, write down the corresponding clearance.
- TEST SUMMARY: Pharmacokinetic test in mice
- Type: in vivo
- STUDY CONDITIONS: male, ICR, mouse, iv, i.v. (5 mg/kg), plasma
API: value field is a number in mL/min/kg; no unit string.

[Q] Supply recorded clearance for C[C@@H]1Cc2c([nH]c3cc(F)ccc23)[C@@H](c2c(F)cc(N[C@H]3CCN(CCCF)C3)cc2F)N1CC(F)(F)F here.
[A] 16.3

[Q] Supply recorded clearance for C#Cc1ccc2c3c([nH]c2c1)[C@@H](c1c(F)cc(N[C@H]2CCN(CCCF)C2)cc1F)N(CC(F)(F)F)[C@H](C)C3 here.
[A] 8.21

[Q] Supply recorded clearance for C[C@@H]1Cc2c([nH]c3ccc(F)cc23)[C@@H](c2c(F)cc(N[C@H]3CCN(CCCF)C3)cc2F)N1CC(F)(F)F here.
[A] 15

---

- TEST SUMMARY: Pharmacokinetic test in rats
- Assay type: in vivo
- STUDY CONDITIONS: male, SD, rat, po, i.g. (10 mg/kg), plasma
For each record, write down the corresponding AUC(0-t).
API: value field is a number in ng·h/mL; no unit string.

[Q] Supply recorded AUC(0-t) for C[C@@H]1Cc2c([nH]c3ccc(F)cc23)[C@@H](c2c(F)cc(N[C@H]3CCN(CCCF)C3)cc2F)N1CC(F)(F)F [Compound 18] here.
[A] 4560

[Q] Supply recorded AUC(0-t) for C[C@@H]1Cc2c([nH]c3cc(F)ccc23)[C@@H](c2c(F)cc(N[C@H]3CCN(CCCF)C3)cc2F)N1CC(F)(F)F [Compound 32] here.
[A] 1970

[Q] Supply recorded AUC(0-t) for C#Cc1ccc2c3c([nH]c2c1)[C@@H](c1c(F)cc(N[C@H]2CCN(CCCF)C2)cc1F)N(CC(F)(F)F)[C@H](C)C3 [Compound 43] here.
[A] 3200

---

- TEST SUMMARY: Pharmacokinetic test in mice
- Format: in vivo
- STUDY CONDITIONS: male, ICR, mouse, iv, i.v. (5 mg/kg), plasma, read-out: Vdss
For each record, write down the corresponding Vd.
API: value field is a number in L/kg; no unit string.

[Q] Supply recorded Vd for C[C@@H]1Cc2c([nH]c3cc(F)ccc23)[C@@H](c2c(F)cc(N[C@H]3CCN(CCCF)C3)cc2F)N1CC(F)(F)F here.
[A] 21.6

[Q] Supply recorded Vd for C[C@@H]1Cc2c([nH]c3ccc(F)cc23)[C@@H](c2c(F)cc(N[C@H]3CCN(CCCF)C3)cc2F)N1CC(F)(F)F here.
[A] 18.2

[Q] Supply recorded Vd for C#Cc1ccc2c3c([nH]c2c1)[C@@H](c1c(F)cc(N[C@H]2CCN(CCCF)C2)cc1F)N(CC(F)(F)F)[C@H](C)C3 here.
[A] 16.6

---

For each record, write down the corresponding Dmax at 0.1 µM.
- ASSAYED SYSTEM: ERα (Homo sapiens (Human))
- Sequence (P03372 whole entry): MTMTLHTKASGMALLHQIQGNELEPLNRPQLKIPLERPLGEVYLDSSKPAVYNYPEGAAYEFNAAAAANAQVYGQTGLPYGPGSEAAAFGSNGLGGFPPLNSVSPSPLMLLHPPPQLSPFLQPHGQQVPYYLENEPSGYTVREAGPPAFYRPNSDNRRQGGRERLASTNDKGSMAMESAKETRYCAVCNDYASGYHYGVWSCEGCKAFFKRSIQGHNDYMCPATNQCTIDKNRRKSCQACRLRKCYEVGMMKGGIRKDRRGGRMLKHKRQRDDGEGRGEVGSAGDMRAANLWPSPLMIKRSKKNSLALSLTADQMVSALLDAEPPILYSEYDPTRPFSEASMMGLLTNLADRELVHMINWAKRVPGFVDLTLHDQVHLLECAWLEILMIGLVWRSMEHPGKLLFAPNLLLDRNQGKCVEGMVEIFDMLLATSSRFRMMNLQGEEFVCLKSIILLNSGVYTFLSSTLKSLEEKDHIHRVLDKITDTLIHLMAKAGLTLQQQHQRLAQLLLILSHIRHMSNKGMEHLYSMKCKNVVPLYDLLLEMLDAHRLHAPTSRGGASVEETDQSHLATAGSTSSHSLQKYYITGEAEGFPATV
- TEST SUMMARY: Degradation effect of compounds on ERα in MCF-7 and CAMA-1 cells (automated western blot, 24 h)
- Format: cell-based
- STUDY CONDITIONS: MCF7; ERα degradation in MCF-7 cells, @100 nM
API: value field is a number in %; no unit string.

[Q] Supply recorded Dmax at 0.1 µM for C[C@@H]1Cc2c([nH]c3ccc(F)cc23)[C@@H](c2c(F)cc(N[C@H]3CCN(CCCF)C3)cc2F)N1CC(F)(F)F here.
[A] 70

[Q] Supply recorded Dmax at 0.1 µM for C[C@@H]1Cc2c([nH]c3cc(F)ccc23)[C@@H](c2c(F)cc(N[C@H]3CCN(CCCF)C3)cc2F)N1CC(F)(F)CO here.
[A] 77

[Q] Supply recorded Dmax at 0.1 µM for C[C@@H]1Cc2c([nH]c3cc(F)ccc23)[C@@H](c2c(F)cc(N[C@H]3CCN(CCCF)C3)cc2F)N1CC(F)(F)F here.
[A] 88

[Q] Supply recorded Dmax at 0.1 µM for C[C@@H]1Cc2c([nH]c3ccc(F)cc23)[C@@H](c2c(F)cc(N[C@H]3CCN(CCCF)C3)cc2F)N1CC(F)(F)CF here.
[A] 72

[Q] Supply recorded Dmax at 0.1 µM for C[C@@H]1Cc2c([nH]c3cccc(F)c23)[C@@H](c2c(F)cc(N[C@H]3CCN(CCCF)C3)cc2F)N1CC(F)(F)CO here.
[A] 72

[Q] Supply recorded Dmax at 0.1 µM for Cc1ccc2c3c([nH]c2c1)[C@@H](c1c(F)cc(N[C@H]2CCN(CCCF)C2)cc1F)N(CC(F)(F)CO)[C@H](C)C3 here.
[A] 70

[Q] Supply recorded Dmax at 0.1 µM for C[C@@H]1Cc2c([nH]c3cc(F)c(F)cc23)[C@@H](c2c(F)cc(N[C@H]3CCN(CCCF)C3)cc2F)N1CC(F)(F)CO here.
[A] 68

[Q] Supply recorded Dmax at 0.1 µM for CC1Cc2c([nH]c3cc4c(cc23)CC4)C(c2c(F)cc(NC3CN(CCCF)C3)cc2F)N1CC(F)(F)F (single isomer, unassigned) here.
[A] 69

[Q] Supply recorded Dmax at 0.1 µM for C#Cc1ccc2c3c([nH]c2c1)[C@@H](c1c(F)cc(NC2CN(CCCF)C2)cc1F)N(CC(F)(F)F)[C@H](C)C3 here.
[A] 68

[Q] Supply recorded Dmax at 0.1 µM for Cc1ccc2[nH]c3c(c2c1)C[C@@H](C)N(CC(F)(F)CO)[C@@H]3c1c(F)cc(N[C@H]2CCN(CCCF)C2)cc1F here.
[A] 70

Attribution: patent US20240208932A1
